Experiment: P. aeruginosa biofilm formation inhibitors, primary screen, strain PAO1, LB-PBS medium, absorbance 600 nm (AID 1176); note: test concentration not given here
Settings: P. aeruginosa PAO1 growth/biofilm, A600, 12 h; higher = more signal
// values below are reported z-score
API doc: respond with a numeric literal and nothing else, no unit.

Query: Give z-score for the following molecule: "Cc1ccc(S[C@]2(C(=O)NC(C)C)CC(=O)N(C3Cc4ccccc4C3)[C@@H]2c2ccc(CO)cc2I)cc1"
Result: 0.379

Query: Give z-score for the following molecule: CCN(CC)c1ccc(N2CC=CC34O[C@@H]5/C=C\CCC(C)OC(=O)C5[C@H]3C(=O)N(CCO)[C@@H]4C2=O)cc1 (some centres not stated)
Result: -0.593

Query: Give z-score for the following molecule: "O=c1cccc(-c2ccc(C(F)(F)F)cc2)o1"
Result: 0.0767

Query: Give z-score for the following molecule: "CCOC(=O)C1=CC[C@@H](c2cc(Cl)ccc2Cl)N(S(=O)(=O)c2ccc(C)cc2)[C@H]1c1ccc(OC)cc1"
Result: 0.0767

Query: Give z-score for the following molecule: O=C1OCC=C[C@H]2OC34C=CCN(c5ccc(Cl)cc5)C(=O)[C@H]3N(CCCCCO)C(=O)[C@@H]4[C@@H]12 (some centres not stated)
Result: -0.0963

Query: Give z-score for the following molecule: "COCCOC(=O)N1C(=O)[C@@]2(c3cc(C#CC4=CCCCC4)ccc31)[C@H](c1ccccc1OCCO)N1[C@H](c3ccccc3)[C@H](c3ccccc3)OC(=O)[C@H]1[C@@H]2C(=O)N1CCc2cc(OC)c(OC)cc2C1"
Result: 1.92

Query: Give z-score for the following molecule: "CN(C)CCCNC(=O)[C@@H]1c2ccccc2C(=O)N(CC23CC4CC(CC(C4)C2)C3)[C@H]1c1ccc(CO)cc1"
Result: 0.0435
